Catalogue of molecules with associated pKi
Measured on: Genome polyprotein (Hepatitis C virus genotype 1a (isolate H77))
Sequence (P27958 1027-1657 limits assumed): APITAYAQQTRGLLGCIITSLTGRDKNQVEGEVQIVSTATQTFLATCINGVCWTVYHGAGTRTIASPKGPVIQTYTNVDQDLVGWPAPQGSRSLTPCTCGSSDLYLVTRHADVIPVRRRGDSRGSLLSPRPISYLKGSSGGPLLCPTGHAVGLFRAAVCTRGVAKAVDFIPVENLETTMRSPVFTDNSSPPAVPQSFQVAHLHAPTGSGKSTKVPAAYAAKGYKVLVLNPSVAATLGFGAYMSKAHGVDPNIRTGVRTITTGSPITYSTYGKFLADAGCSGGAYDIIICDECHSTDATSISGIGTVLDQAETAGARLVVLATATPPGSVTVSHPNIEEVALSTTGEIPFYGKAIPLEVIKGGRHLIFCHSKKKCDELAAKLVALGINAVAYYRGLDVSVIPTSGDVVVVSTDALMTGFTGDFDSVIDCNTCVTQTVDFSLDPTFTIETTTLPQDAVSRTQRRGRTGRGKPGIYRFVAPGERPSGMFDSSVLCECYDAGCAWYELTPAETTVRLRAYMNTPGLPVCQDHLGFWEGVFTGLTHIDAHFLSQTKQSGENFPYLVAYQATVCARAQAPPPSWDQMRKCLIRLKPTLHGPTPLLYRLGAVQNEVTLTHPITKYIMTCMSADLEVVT
Assay method text: Continuous Spectrophotometric Assay
pKi: −log10 of the molar value.

Molecule	Measured on	pKi
CC(C)C(NC(=O)NC(C)(C)C)C(=O)N1C[C@H]2[C@@H](C1C(=O)NC(CC1CC1)C(=O)C(N)=O)C2(C)C (stereo partly specified)	Genome polyprotein (Hepatitis C virus genotype 1a (isolate H77))	7.00
CC(C)CC(NC(=O)C(NC(=O)NC(C)(C)C)C(C)(C)C)C(=O)NC(CC1CCC1)C(=O)C(N)=O (stereo unspecified)	Genome polyprotein (Hepatitis C virus genotype 1a (isolate H77))	6.00
CC(C)(C)NC(=O)NC(C(=O)N1C[C@@H]2OC(C)(C)[C@@H]2C1C(=O)NC(CC1CCC1)C(=O)C(N)=O)C(C)(C)C (stereo partly specified)	Genome polyprotein (Hepatitis C virus genotype 1a (isolate H77))	6.02
CC(C)(C)NC(=O)NC(C(=O)N1C[C@H]2[C@@H](C1C(=O)NC(CC1CC(F)(F)C1)C(=O)C(N)=O)C2(C)C)C(C)(C)C (stereo partly specified)	Genome polyprotein (Hepatitis C virus genotype 1a (isolate H77))	6.94
CC(C)(C)NC(=O)NC(C(=O)N1C[C@@H]2OC(C)(C)C[C@@H]2C1C(=O)NC(CC1CCC1)C(=O)C(N)=O)C(C)(C)C (stereo partly specified)	Genome polyprotein (Hepatitis C virus genotype 1a (isolate H77))	6.30
CC(C)(C)NC(=O)NC(C(=O)N1C[C@H]2[C@@H](C1C(=O)NC(CC1CCC1)C(=O)C(N)=O)C2(F)F)C(C)(C)C (stereo partly specified)	Genome polyprotein (Hepatitis C virus genotype 1a (isolate H77))	6.85
